assay.notes: Dog pharmacokinetic studies
Type: in vivo, male Beagle dogs
condition.summary: male, Beagle, plasma, PO 1 mg/kg
Entries and their MRT
Kindly provide the numeric value in h only, without the unit symbol.

CC(C)(C)NC[C@H](O)c1cccc(C(F)(F)F)n1 [Compound 03-3]    1.93

Q: Respond only with MRT recorded for CC(C)(C)NC[C@H](O)c1cccc(C#N)n1 [Compound 03-5]
A: 1.37

---

test.system: β1-adrenergic receptor (Homo sapiens (Human))
assay.notes: cAMP Gs dynamic HTRF assay, β1 expressing CHO cells
Type: cell-based
condition.summary: B1-AR; CHO-K1 (HitHunter); read-out: Average pEC50 [Receptor subtype: B1-AR; Cell type: CHO-K1 (HitHunter)] (converted)
Entries and their EC50

Q: Respond only with EC50 recorded for CC(C)NC[C@@H](O)c1cccc(C(F)(F)F)n1
A: > 1000 nM

Q: Respond only with EC50 recorded for Cc1cc([C@H](O)CNC(C)(C)C)nc(C(F)(F)F)c1
A: > 1000 nM

Q: Respond only with EC50 recorded for Cc1nc(C2CC2)ccc1[C@@H](O)CNC(C)(C)C
A: 10 to 100 nM

Q: Respond only with EC50 recorded for CNc1ccc([C@@H](O)CNC(C)(C)C)c(C)n1
A: 100 to 1000 nM

Q: Respond only with EC50 recorded for CC(C)(CO)NC[C@H](O)c1cccc(C#N)n1
A: 100 to 1000 nM

Q: Respond only with EC50 recorded for CC1(NC[C@H](O)c2cccc(C(F)(F)F)n2)CCOCC1
A: 100 to 1000 nM

Q: Respond only with EC50 recorded for CC(C)(C)NCC(O)c1cc(C#N)cc(C(F)(F)F)n1 (stereo not shown)
A: > 1000 nM

Q: Respond only with EC50 recorded for Cc1ccc([C@@H](O)CNC(C)(C)C)nc1
A: 10 to 100 nM

Q: Respond only with EC50 recorded for CC(C)NC[C@H](O)c1cccc(C(F)(F)F)n1
A: < 10 nM

Q: Respond only with EC50 recorded for CC(C)(C)NC[C@H](O)c1cccc(N2CCCC2)n1
A: 100 to 1000 nM

---

test.system: β1-adrenergic receptor (Homo sapiens (Human), UniProt P08588)
Sequence (P08588 whole entry, species assumed): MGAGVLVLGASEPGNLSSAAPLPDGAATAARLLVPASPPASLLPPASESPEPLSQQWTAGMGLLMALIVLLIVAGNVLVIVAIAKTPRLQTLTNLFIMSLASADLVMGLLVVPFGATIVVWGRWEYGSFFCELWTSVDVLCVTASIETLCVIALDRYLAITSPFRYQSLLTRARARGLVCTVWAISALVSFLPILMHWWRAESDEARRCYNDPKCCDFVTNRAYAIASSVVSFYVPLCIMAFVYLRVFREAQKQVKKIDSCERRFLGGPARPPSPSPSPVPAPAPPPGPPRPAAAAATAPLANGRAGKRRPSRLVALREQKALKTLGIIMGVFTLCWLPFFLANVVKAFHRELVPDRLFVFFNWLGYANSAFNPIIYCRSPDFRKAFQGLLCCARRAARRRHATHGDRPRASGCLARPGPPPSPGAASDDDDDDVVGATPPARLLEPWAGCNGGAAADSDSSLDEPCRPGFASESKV
assay.notes: cAMP Gs dynamic HTRF assay, β1 expressing CHO cells
Type: cell-based
condition.summary: B1-AR; CHO-K1 (HitHunter); read-out: Average pEC50 [Receptor subtype: B1-AR; Cell type: CHO-K1 (HitHunter)] (converted)
Experimental: cAMP homogeneous time-resolved fluorescence (HTRF). Compound efficacy was determined using the cAMP Gs dynamic HTRF assay (Cisbio, catalog #62AM4PEC) largely following the manufacturer's instructions, also detailed below. Compound preparation. […] Cell preparation. […] Cells were harvested using assay PBS, counted manually by hemocytometer or by an automated cell counter, pelleted by centrifugation (200×g, 5 minutes) and resuspended in 37° C. […] HTRF reagent addition, reading and data analysis. […]
measurement.name: EC50

CC(C)(C)NCC(O)c1cccnc1Cl (stereo not drawn)    100 to 1000 nM
CC(C)Nc1cccc([C@H](O)CNC(C)(C)C)n1    10 to 100 nM
CC(C)(C)NC[C@H](O)c1cccnc1-n1nccn1    > 1000 nM
CNCc1cccc([C@@H](O)CN[C@H](C)Cc2ccc(OC)cc2)n1    > 1000 nM
Cc1ccc([C@@H](O)CNC(C)(C)C)c(C2CCCC2)n1    > 1000 nM

Q: Respond only with EC50 recorded for CC(C)NC[C@H](O)c1cccc(C2CC2)n1
A: 10 to 100 nM

Q: Respond only with EC50 recorded for Cc1cnccc1[C@@H](O)CNC(C)(C)C
A: > 1000 nM

Q: Respond only with EC50 recorded for CC(C)(C)NC[C@@H](O)c1cccc(NC2CCC2)n1
A: > 1000 nM

Q: Respond only with EC50 recorded for CC(C)(C)NC[C@H](O)c1cccc(OC(C)(C)C)n1
A: 10 to 100 nM
